Test system: DeltatarO mutant
Assay: S. aureus survival, RN4220 and DeltatarO strains – OD600, teichoic acid synthesis inhibitors, primary screen (AID 463173)
Conditions: S. aureus RN4220 wild type/DeltatarO growth, OD600, 18 h, screened at 18.75 µg/mL (by protocol)
Among all 52,000 compounds or so, about 4,300 (8.3%) were called active. Rule as the data show it: active = survival mostly below about 52% (no sharp cut-off); inactive = mostly above about 56%. The list comes from a sample in which actives are over-represented; it also holds close analogues and randomly drawn compounds.
Classes to choose from: active, inactive

molecule=CCOc1cc(CNCCSc2nnnn2C)cc(Cl)c1OCc1ccc(Cl)cc1 class=active

Exercise: I would be grateful if you could indicate the recorded call for `CC(=O)Nc1ccc(-n2c(CCC(=O)O)ccc2-c2ccc(Br)cc2)cc1` .
Solution: active

Exercise: I would be grateful if you could indicate the recorded call for Cc1ccc(Cl)cc1Nc1nn2c(=O)c3ccc(C(=O)N4CCCC(C)C4)cc3nc2s1 (stereo unspecified) .
Solution: inactive

Exercise: I would be grateful if you could indicate the recorded call for `CC(C)c1c(O)nc(SCCN2CCOCC2)[nH]c1=O` .
Solution: inactive

Exercise: I would be grateful if you could indicate the recorded call for `COc1cccc(CNCCSc2nnnn2C)c1OCc1ccccc1` .
Solution: inactive

Exercise: I would be grateful if you could indicate the recorded call for `Cc1ccc(-c2ccc(CCC(=O)O)n2-c2ccc(C(C)C)cc2)cc1` .
Solution: inactive

Exercise: I would be grateful if you could indicate the recorded call for `Cn1nnnc1SCCNCc1ccc(OCc2ccc(Cl)cc2)cc1` .
Solution: inactive

Exercise: I would be grateful if you could indicate the recorded call for `CCOc1ccc(NC(=O)Cn2c(CCC(=O)O)ccc2-c2ccc(C)cc2)cc1` .
Solution: inactive

###

For each of the molecules below, state its survival.
Tested on: DeltatarO mutant
Experiment: S. aureus survival, RN4220 and DeltatarO strains – OD600, teichoic acid synthesis inhibitors, primary screen (AID 463173)
Details: S. aureus RN4220 wild type/DeltatarO growth, OD600, 18 h, hits give low values, screened at 18.75 µg/mL (by protocol)
The whole screen tested about 52,000 compounds, of which about 4,300 (8.3%) were called active. The entries come from a sample that favours actives as a whole.
Answers are plain numbers, in %.

A selection of reference data follows.
samplesmiles=Cc1ccccc1Nc1nn2c(=O)c3ccc(C(=O)NCc4cccs4)cc3nc2s1 assayendpoint=survival obsvalue=72
samplesmiles=CN(C)S(=O)(=O)c1ccc(C(=O)NCCSc2c(-c3ccccc3)[nH]c3ccccc23)cc1 assayendpoint=survival obsvalue=68

Proceed to the following item.
Exercise: Give survival only, for `CC(=O)NCCNC(=O)CCCc1nnc2n(CCC(C)C)c(=O)c3sccc3n12` , using DeltatarO mutant data.
Solution: 90

###

Test system: DeltatarO mutant
Experiment: S. aureus survival, RN4220 and DeltatarO strains – OD600, teichoic acid synthesis inhibitors, primary screen (AID 463173)
Settings: S. aureus RN4220 wild type/DeltatarO growth, OD600, 18 h, hits give low values, screened at 18.75 µg/mL (by protocol)
The whole screen tested about 52,000 compounds, of which about 4,300 (8.3%) were called active. Only a selection was taken, and actives are over-represented in it overall.
assayEndpoint: survival (%)
Numbers only, in %.

A selection of reference data follows.
compound=CCOC(=O)c1c(Nc2cc(C)cc(C)c2)nnc(-c2ccccc2)c1-c1ccccc1 obsvalue=32
compound=CCOC(=O)c1c(C)oc2nc(C)nc(Nc3cc(C)cc(C)c3)c12 obsvalue=89
compound=Cc1ccc(NC(=O)c2c(C)nn(-c3ccccc3)c2-n2cccc2)c(Cl)c1 obsvalue=79
compound=COc1ccc(C2=Nn3c(nc4sc(C(=O)Nc5cccc(C)c5)c(C)c4c3=O)SC2)cc1 obsvalue=105
compound=COc1ccc(-c2nnc(SCC(=O)NCc3ccc(C)cc3)nc2-c2ccc(OC)c(OC)c2)cc1OC obsvalue=76

For every item below, please supply its survival.
1. CC(C)Oc1ccc(C(=O)N(Cc2ccc(N(C)C)cc2)Cc2ccco2)cc1
2. CCC(NC(=O)Nc1cc(OC)ccc1OC)c1c(-n2cccc2)sc2c1CCN(CC)C2 (stereo not given)
3. CNC(=O)c1ccc(Nc2nnc(-c3ccc(C)c(S(=O)(=O)N4CCCCC4)c3)c3ccccc23)cc1
4. Cc1nn2c(-c3ccco3)ccnc2c1-c1ccc(Cl)cc1

Solution:
1. 59
2. 88
3. 54
4. 94

Exercise: Supply reported survival belonging to this compound: `Cc1ccc(CN(Cc2ccco2)C(=O)c2cccc(C)c2)cc1`
Solution: 68
